Compiled notes: published pIC50 values involving M-phase inducer phosphatase 1 (Homo sapiens, UniProt P30304).
# measured on: M-phase inducer phosphatase 1 (Homo sapiens, UniProt P30304)
# Sequence (P30304 whole entry): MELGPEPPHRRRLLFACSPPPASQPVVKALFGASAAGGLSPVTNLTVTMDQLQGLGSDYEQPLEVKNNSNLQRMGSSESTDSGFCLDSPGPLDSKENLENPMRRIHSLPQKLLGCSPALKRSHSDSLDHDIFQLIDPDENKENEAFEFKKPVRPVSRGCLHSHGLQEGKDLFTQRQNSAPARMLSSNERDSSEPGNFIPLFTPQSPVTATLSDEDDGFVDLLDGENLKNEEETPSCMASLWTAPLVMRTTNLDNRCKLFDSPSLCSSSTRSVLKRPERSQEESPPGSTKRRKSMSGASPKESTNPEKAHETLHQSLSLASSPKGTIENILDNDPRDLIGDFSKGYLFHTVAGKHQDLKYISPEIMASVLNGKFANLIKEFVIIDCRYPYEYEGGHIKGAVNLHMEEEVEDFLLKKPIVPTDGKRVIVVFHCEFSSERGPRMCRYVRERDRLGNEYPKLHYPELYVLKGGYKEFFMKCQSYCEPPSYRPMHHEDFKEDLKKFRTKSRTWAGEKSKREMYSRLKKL
pIC50: −log10 of the molar value.
quantity measured: pIC50

In [3]: df
Out[3]:
                                   molecule                               measured_on  quantity_measured  value_operator  observed_measurement
0  C=CCC(O)C[C@H]1C(C)=CC[C@H]2C(C)(C)CCC[C@]12C (stereo not given in full)  M-phase inducer phosphatase 1 (Homo sapiens, UniProt P30304)              pIC50               <                  3.44
1    CCCCCCCCCCCCCCC1=C(CCC(=O)O)C(=O)OC1=O  M-phase inducer phosphatase 1 (Homo sapiens, UniProt P30304)              pIC50               =                  5.20
2  CO[C@H]1O[C@H](Cn2cc(COC[C@H](NC(=O)OC(C)(C)C)C(=O)O)nn2)[C@@H](OCc2ccccc2)[C@H](OCc2ccccc2)[C@@H]1OCc1ccccc1  M-phase inducer phosphatase 1 (Homo sapiens, UniProt P30304)              pIC50               =                  4.57
3  CC(C)CCC[C@@H](C)[C@H]1CCC2/C(=C/C(=O)O)CCC[C@@]21C (stereo not given in full)  M-phase inducer phosphatase 1 (Homo sapiens, UniProt P30304)              pIC50               =                  4.92
4  CCCCCCCCCCCCCCCCOP(=O)([O-])OCC[N+]1(C)CCOCC1  M-phase inducer phosphatase 1 (Homo sapiens, UniProt P30304)              pIC50               =                  4.40

====

Compiled notes: published IC50 values involving M-phase inducer phosphatase 1 (Homo sapiens, UniProt P30304).
# measured on: M-phase inducer phosphatase 1 (Homo sapiens, UniProt P30304)
# Sequence (P30304 whole entry): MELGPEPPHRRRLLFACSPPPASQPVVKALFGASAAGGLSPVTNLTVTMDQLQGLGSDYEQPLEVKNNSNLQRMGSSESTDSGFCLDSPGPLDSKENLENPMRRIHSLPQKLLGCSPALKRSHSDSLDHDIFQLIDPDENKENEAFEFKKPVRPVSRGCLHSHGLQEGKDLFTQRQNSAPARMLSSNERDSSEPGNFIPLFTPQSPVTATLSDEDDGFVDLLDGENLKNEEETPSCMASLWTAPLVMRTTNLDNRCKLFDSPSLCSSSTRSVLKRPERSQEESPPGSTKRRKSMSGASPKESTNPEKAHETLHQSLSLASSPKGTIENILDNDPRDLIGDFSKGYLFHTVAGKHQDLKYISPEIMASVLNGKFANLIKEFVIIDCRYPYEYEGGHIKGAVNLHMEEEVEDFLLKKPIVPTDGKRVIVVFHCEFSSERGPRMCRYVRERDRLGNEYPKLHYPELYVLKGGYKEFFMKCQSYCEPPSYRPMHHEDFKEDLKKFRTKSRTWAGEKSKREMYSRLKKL
// returns Not fulfilled unless IC50 is strictly below 20 µM, in which case Fulfilled

compound	label value
CCCCCCCCCCCCCCN1C(=O)/C(=C/C(=O)O)c2ccccc21	Fulfilled
CC(=C/c1ccccc1)/C=C1\SC(Nc2ccccc2Cl)=NC1=O	Fulfilled
C=C(C)CCC[C@]1(C)CCC[C@@H]2C1=CC[C@@H](C)[C@@H]2C[C@H](O)C1=CC(=O)OC1O (some centres not stated)	Fulfilled
CCCCCCCCCCCCCCOP(=O)([O-])OCC[N+]1(C)CCOCC1	Not fulfilled
CCCCCCN1C(=O)/C(=C/C(=O)O)c2ccccc21	Not fulfilled
CC1=CC[C@H]2C(C)(C)CCC[C@]2(C)[C@H]1CC(CCCCc1ccoc1)OS(=O)(=O)O (stereo in doubt; 31)	Fulfilled
CC(C)CCC[C@@H](C)[C@H]1CCC2[C@@H](OP(=O)(O)O)CCC[C@@]21C (some centres not stated)	Fulfilled
CCCCCCCCCCCCOCCOP(=O)([O-])OCC[N+]1(C)CCOCC1	Not fulfilled
Cc1ccc(-c2nnc(SCC(=O)c3ccc(O)c(O)c3)n2Cc2ccco2)cc1	Fulfilled
CCCCCCN1C(=O)/C(=C\C(=O)O)c2ccccc21	Not fulfilled
CC1=CC[C@H]2C(C)(C)CCC[C@]2(C)[C@H]1CCOS(=O)(=O)O	Not fulfilled
CCCCCCCCCCCCCCOP(=O)([O-])OCC[N+]1(C)CCCCC1	Not fulfilled
CC(C)CCC[C@@H](C)[C@H]1CCC2[C@@](C)(CO)CCC[C@@]21C (some centres not stated)	Not fulfilled
Cc1ccc(/N=C2N=C(O)/C(=C/C=C/c3ccco3)S\2)cc1C	Fulfilled
O=C1C=C(O)C(=O)C(c2c[nH]c3ccccc23)=C1O	Not fulfilled
CC(C)=CCc1cccc2c(C3=C(O)C(O)=CC(=O)C3=O)c[nH]c12	Fulfilled
CCCCCCCCCCCCOP(=O)([O-])OCC[N+]1(C)CCCCC1	Not fulfilled
CC(C)=CCc1c(Cl)cc(Cl)c2c(C3=C(O)C(O)=CC(=O)C3=O)c[nH]c12	Fulfilled
O=C1N=C(Nc2cc(Cl)cc(Cl)c2)S/C1=C\C=C\c1ccco1	Fulfilled
O=C(Nc1ccc(Cl)c(Cl)c1)Nc1ncc2c(n1)CC(c1ccco1)CC2=O (configuration not stated)	Fulfilled
O=P(O)(O)C(F)(F)c1ccc(COc2ccccc2OCc2ccc(C(F)(F)P(=O)(O)O)cc2)cc1	Not fulfilled
CC(C)=CCC/C(C)=C/Cc1cccc2c(C3=C(O)C(O)=CC(=O)C3=O)c[nH]c12	Fulfilled
O=C1N=C(Nc2ccc(Cl)cc2Cl)S/C1=C\C=C\c1ccco1	Fulfilled
CCCCCCCCCC1=C(CCC(=O)O)C(=O)OC1=O	Not fulfilled
CCCCCCCCCCCCN1C(=O)C(=O)c2ccccc21	Fulfilled
Cn1c(SCC(=O)c2ccc([N+](=O)[O-])cc2)nnc1-c1cccc(Cl)c1	Fulfilled
O=C1N=C(Nc2cccc(Cl)c2)S/C1=C\C=C\c1ccco1	Fulfilled
O=P(O)(O)C(F)(F)c1ccc(COc2cccc(OCc3ccc(C(F)(F)P(=O)(O)O)cc3)c2)cc1	Not fulfilled
C[C@H](OCc1cn([C@@H]2O[C@H](COCc3ccccc3)[C@@H](OCc3ccccc3)[C@H](OCc3ccccc3)[C@H]2OCc2ccccc2)nn1)[C@H](NC(=O)OC(C)(C)C)C(=O)O	Not fulfilled
Cn1cccc1/C=C1\SC(Nc2ccc(F)cc2)=NC1=O	Fulfilled
CCCCCCCCCCCC1=C(CCC(=O)O)C(=O)OC1=O	Not fulfilled
CC(C)=CCc1c(Cl)ccc2c(C3=C(O)C(O)=CC(=O)C3=O)c[nH]c12	Fulfilled
O=C1N=C(Nc2cc(Cl)cc(Cl)c2)S/C1=C\c1c[nH]c2ccccc12	Fulfilled
CC1=CC[C@H]2C(C)(C)CCC[C@]2(C)[C@H]1CC(CCCCc1ccccc1)OS(=O)(=O)O (some centres not stated)	Fulfilled
CC1=C(CC(CC(=O)c2ccccc2)C(C(=O)O)C(=O)O)[C@@]2(C)CCCC(C)(C)[C@@H]2CC1 (some centres not stated)	Not fulfilled
CCCCCCC1=C(CCC(=O)O)C(=O)OC1=O	Not fulfilled
CCCCCCCCCCCCCCCCOP(=O)([O-])OCC[N+](C)(C)C	Not fulfilled

====

# measured on: M-phase inducer phosphatase 1 (Homo sapiens, UniProt P30304)
# Sequence (P30304 whole entry): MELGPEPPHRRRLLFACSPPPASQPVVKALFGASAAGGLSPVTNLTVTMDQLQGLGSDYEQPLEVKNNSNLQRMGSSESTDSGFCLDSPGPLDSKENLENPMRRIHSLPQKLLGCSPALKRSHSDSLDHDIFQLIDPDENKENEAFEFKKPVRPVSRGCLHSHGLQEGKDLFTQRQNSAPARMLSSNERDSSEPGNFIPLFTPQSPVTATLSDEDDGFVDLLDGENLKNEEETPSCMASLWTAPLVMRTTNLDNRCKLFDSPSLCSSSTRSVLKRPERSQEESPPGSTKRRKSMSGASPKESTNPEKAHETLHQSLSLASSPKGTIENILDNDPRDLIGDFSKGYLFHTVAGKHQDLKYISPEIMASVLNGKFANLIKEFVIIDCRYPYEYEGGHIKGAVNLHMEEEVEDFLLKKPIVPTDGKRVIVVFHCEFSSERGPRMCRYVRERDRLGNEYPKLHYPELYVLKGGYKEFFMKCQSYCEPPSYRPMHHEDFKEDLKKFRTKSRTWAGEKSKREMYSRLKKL
Compiled notes: published IC50 values involving M-phase inducer phosphatase 1 (Homo sapiens, UniProt P30304).
quantity measured: IC50 (µM)

>>> print(df.to_string())
                                   compound                               measured_on  quantity_measured  unit_string  observed_measurement
0      O=C1N=C(Nc2ccc(Cl)cc2)S/C1=C\c1cccs1  M-phase inducer phosphatase 1 (Homo sapiens, UniProt P30304)               IC50           µM                  11.1
1  CC(C)CCCC(C)[C@H]1CC[C@H]2[C@@H]3CC(=O)O[C@@](C)(CC/C=C\C#N)[C@H]3CC[C@]12C (some centres undefined)  M-phase inducer phosphatase 1 (Homo sapiens, UniProt P30304)               IC50           µM                  13.3
2  Cc1ccc2[nH]cc(C3=C(O)C(O)=CC(=O)C3=O)c2c1  M-phase inducer phosphatase 1 (Homo sapiens, UniProt P30304)               IC50           µM                   8.1
3       O=C1N=C(Nc2cccc(O)c2)S/C1=C\c1cccs1  M-phase inducer phosphatase 1 (Homo sapiens, UniProt P30304)               IC50           µM                   7.8
